Just for reference, PubChem BioAssay (NCI) is where these values come from.

Test system: SF-295 CNS
Assay: NCI-60 one-dose screen, 48 h (100 = growth as untreated, 0 = no growth, -100 = all killed)
Conditions: 10 µM unless noted
Procedure: Cells are grown in 96 well plates and exposed to the test compound for 48 hours. Compounds are tested at a single concentration, which is 10^-5 M for most compounds. The reported endpoint is percent growth (GI% or GIPRCNT), where numbers from 0 - 100% represent growth inhibition, and numbers from -100% - 0 represent cell death. For example, a value of 40 represents 60% growth inhibition. A value of 0 means no net growth occurred over the course of the experiment. […]
Compounds without any hit were thinned out: in the full panel of roughly 83,000, 20% have a hit.
experimental endpoint: growth (%)
Express your answer in %, writing the number without its unit.

Task: Give recorded growth with SF-295 CNS for the following molecule: COc1cc(C(=O)c2c(-c3ccccc3)oc3c(OC)cccc23)cc(OC)c1OC
Result: 2.79

Task: Give recorded growth with SF-295 CNS for the following molecule: Cc1cc2c(cc1C)N(C(=O)CCl)CC(=O)N2
Result: 99.5

Task: Give recorded growth with SF-295 CNS for the following molecule: COc1ccc(-c2n[nH]c(=O)c3nc(NC(=S)Nc4ccc(Oc5ccccc5)cc4)sc23)cc1
Result: 102

Task: Give recorded growth with SF-295 CNS for the following molecule: O=P(O)(O)OCC1OC(n2cnc3c(NCc4ccco4)ncnc32)C(O)C1O (stereo not given)
Result: 34.7

Task: Give recorded growth with SF-295 CNS for the following molecule: Nc1ncnc2c1N=C(c1ccc3c(c1)OCO3)CC(c1cccc(Nc3ccnc4cc(C(F)(F)F)ccc34)c1)N2 (stereo not given)
Result: 87.6
